Attribution: PubChem BioAssay AID1851

- Target or system: Cytochrome P450 3A4 (Homo sapiens)
- Test name: Cytochrome panel assay with activity outcomes
- Condition label: recombinant CYP, pro-luciferin dealkylation, luminescence, p450-cyp3a4; series mostly up to 57.1 µM
The campaign covered roughly 16,000 compounds. About 5,100 (32%) were called active. Roughly 25% stayed inconclusive and do not appear here. Calls follow the shape of the dose curve; as a rule, active = well fitted curve in the direction sought with a large enough effect; inconclusive = small, poorly fitted or top-dose-only effect, or effect the other way; inactive = no such curve, though single readings can be large or run the other way. The list shows a part of the results.
Parameter call: string, one of active, inactive

Molecule	Classification
Cc1ccc(-c2cc(C(=O)NN=C3CCCC3)c3ccccc3n2)cc1	active

Test call for this molecule, please: Cc1cc(C)c(NC(=O)C(C)Sc2nnc(-c3ccco3)n2-c2ccccc2)c(C)c1 (stereo unspecified)
active

Test call for this molecule, please: "O=C(O)Cc1c[nH]c2ccc(O)cc12"
inactive

Test call for this molecule, please: CC(C(=O)Nc1ccccc1Sc1ccccc1)N(c1ccccc1)S(C)(=O)=O (stereo unspecified)
active

Test call for this molecule, please: "CN1CCN(c2cc(-c3ccccc3C(F)(F)F)ncn2)CC1"
inactive

Test call for this molecule, please: "COCCn1c(=O)cnc2cnc(Nc3ccccc3)nc21"
inactive

Test call for this molecule, please: "COCCn1c(=O)c(-c2ccccc2)nc2cnc(Nc3ccccc3)nc21"
active

Test call for this molecule, please: "CC(C)c1nc2ccccn2c1NC1CCCCC1"
active

Test call for this molecule, please: "COc1ccc(CNc2ccnc(-c3cccc(NS(C)(=O)=O)c3)n2)c(OC)c1"
active

====

- Target or system: Cytochrome P450 3A4 (Homo sapiens) (UniProt P08684)
- Sequence (P08684 whole entry, looked up): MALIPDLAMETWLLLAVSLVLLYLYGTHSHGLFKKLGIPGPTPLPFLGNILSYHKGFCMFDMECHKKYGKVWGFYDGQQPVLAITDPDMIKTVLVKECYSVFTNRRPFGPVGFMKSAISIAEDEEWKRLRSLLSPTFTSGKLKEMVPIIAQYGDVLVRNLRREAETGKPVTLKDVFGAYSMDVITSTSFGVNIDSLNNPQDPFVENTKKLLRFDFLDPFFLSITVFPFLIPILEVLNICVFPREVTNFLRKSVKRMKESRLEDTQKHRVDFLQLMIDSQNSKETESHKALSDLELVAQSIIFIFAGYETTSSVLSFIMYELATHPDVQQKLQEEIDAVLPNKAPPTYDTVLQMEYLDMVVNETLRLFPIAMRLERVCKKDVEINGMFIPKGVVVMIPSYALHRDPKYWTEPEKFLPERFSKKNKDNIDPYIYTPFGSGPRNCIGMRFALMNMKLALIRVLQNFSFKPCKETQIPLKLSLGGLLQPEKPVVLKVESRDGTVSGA
- Test name: Cytochrome panel assay with activity outcomes
- Condition label: recombinant CYP, pro-luciferin dealkylation, luminescence, p450-cyp3a4; series mostly up to 57.1 µM
About 5,100 (32%) of roughly 16,000 compounds were called active. Roughly 25% stayed inconclusive and do not appear here. Calls follow the shape of the dose curve; as a rule, active = well fitted curve in the direction sought with a large enough effect; inconclusive = small, poorly fitted or top-dose-only effect, or effect the other way; inactive = no such curve, though single readings can be large or run the other way. The list shows a part of the results.
Parameter call: string, one of true (1) = active, false (0) = inactive

Test call for this molecule, please: "N#Cc1c(N)nc2c(c1-c1cccc(O)c1)CCCCCC2"
true (1)

Test call for this molecule, please: "Fc1ccccc1OCCCCSc1ncccn1"
false (0)

Test call for this molecule, please: "COc1cccc(-c2ccc3ncnc(N(C)C)c3c2)c1"
true (1)

Test call for this molecule, please: "O=C(NCCNC[C@@H](O)COc1ccc(O)cc1)N1CCOCC1"
false (0)

Test call for this molecule, please: "CC1=CC(C)(C)Nc2ccc(CSc3ccccc3)cc21"
true (1)

Test call for this molecule, please: "O=C(O)COc1ccc(OCCNC[C@@H](O)COc2ccccc2)cc1"
false (0)

Test call for this molecule, please: "CN(C)c1ncnc2ccc(-c3cccnc3)cc12"
true (1)

Test call for this molecule, please: "N[C@@H](C(=O)O)c1ccc(P(=O)(O)O)cc1"
false (0)

Test call for this molecule, please: "CN(C)c1ccc(-c2ccc3ncnc(N(C)C)c3c2)cc1"
true (1)

Test call for this molecule, please: "Cc1c(-c2c(C#N)c(N)nc3c2CCCCCC3)cnn1C"
true (1)

Test call for this molecule, please: "Cc1cc(NC(=O)Nc2ccc(N(C)C)cc2)c2cc(F)cc(F)c2n1"
true (1)

Test call for this molecule, please: "Cn1ncc(C#N)c1/N=C/N1CCCCCC1"
false (0)

====

- Target or system: Cytochrome P450 3A4 (Homo sapiens) (UniProt P08684)
- Test name: Cytochrome panel assay with activity outcomes
- Condition label: recombinant CYP, pro-luciferin dealkylation, luminescence, p450-cyp3a4; series mostly up to 57.1 µM
Hit rate of the full screen: of about 16,000 compounds, about 5,100 (32%) were called active. About 25% were inconclusive and are not listed. Calls follow the shape of the dose curve; as a rule, active = well fitted curve in the direction sought with a large enough effect; inconclusive = small, poorly fitted or top-dose-only effect, or effect the other way; inactive = no such curve, though single readings can be large or run the other way. This is one part of the list.
Parameter call: string, one of true = active, false = inactive

Compound structure	Classification
CCOC(=O)c1cnc2c(cnn2C)c1NCCCN(C)C	false
CC(C)OCCCn1c(=S)[nH]c2ncccc2c1=O	false
N[C@H](C(=O)O)c1ccc(O)c(C(=O)O)c1	false

Now consider a different molecule.
Test call for this molecule, please: "COc1cc(-n2ccnc2SC)c(Cl)cc1Cl"
true
